target: T1, human plasma Kallikrein (Calbiochem, San Diego, Calif., # 420302) (human, UniProt P03952 20-638); assay: preliminary inhibition measurements; method not described
T1 construct: mature; Bought enzyme coupled to agarose beads with Reactigel (6x); also called pKA; human Kallikrein
T1 sequence (P03952 20-638 limits assumed): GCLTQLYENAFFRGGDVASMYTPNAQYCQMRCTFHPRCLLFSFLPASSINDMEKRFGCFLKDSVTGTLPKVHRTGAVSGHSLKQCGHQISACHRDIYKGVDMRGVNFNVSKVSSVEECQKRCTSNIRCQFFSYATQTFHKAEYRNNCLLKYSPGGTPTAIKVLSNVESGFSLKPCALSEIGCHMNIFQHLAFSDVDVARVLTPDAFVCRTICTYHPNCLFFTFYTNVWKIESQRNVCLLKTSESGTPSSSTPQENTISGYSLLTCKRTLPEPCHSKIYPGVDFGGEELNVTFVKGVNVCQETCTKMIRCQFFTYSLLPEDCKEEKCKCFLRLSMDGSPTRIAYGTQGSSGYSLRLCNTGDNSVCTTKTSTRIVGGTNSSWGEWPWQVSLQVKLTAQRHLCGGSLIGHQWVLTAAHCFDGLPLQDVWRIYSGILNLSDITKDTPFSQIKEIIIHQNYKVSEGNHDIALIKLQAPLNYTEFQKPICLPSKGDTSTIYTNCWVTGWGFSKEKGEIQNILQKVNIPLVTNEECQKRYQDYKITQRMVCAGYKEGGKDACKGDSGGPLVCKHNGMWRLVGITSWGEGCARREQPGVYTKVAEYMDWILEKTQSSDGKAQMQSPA
pKi: −log10 of the molar value.

{"Binder": "KKII/3#6 (designed binder, LACI-K1 Kunitz domain variant) MHSFCAFKADDGHCKANHQRFFFNIFTRQCEEFSYGGCGGNQNRFESLEECKKMCTRD", "pKi": "> 9.30"}

Hey, just so you know, these numbers are from patent US20060264603A1.
